Target: HRgpA-6H (Porphyromonas gingivalis) (UniProt P28784)
Experiment: ELISA on coated HRgpA-6H
Assay Readout: Ratio OD(Variant)/OD(WT)

Binder	Recorded Value
KB001 mouse Fab FASEBA VH S61R (Fab, V domains shown) VH: EVQLKQSGPGLVAPSQSLSITCTVSGFSLSIYSVHWVRQPPGKGLEWLGMIWGGGSSDYNRALKSRLSISKDNSKSQVFLKMNSLQTDDTAMYYCARNGNFYAMDYWGQGTSVTVSS VL: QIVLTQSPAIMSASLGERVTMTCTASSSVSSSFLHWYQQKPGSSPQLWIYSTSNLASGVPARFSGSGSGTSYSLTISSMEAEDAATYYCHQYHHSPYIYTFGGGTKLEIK	0.888
KB001 mouse Fab FASEBA VH G99S (Fab, V domains shown) VH: EVQLKQSGPGLVAPSQSLSITCTVSGFSLSIYSVHWVRQPPGKGLEWLGMIWGGGSSDYNSALKSRLSISKDNSKSQVFLKMNSLQTDDTAMYYCARNSNFYAMDYWGQGTSVTVSS VL: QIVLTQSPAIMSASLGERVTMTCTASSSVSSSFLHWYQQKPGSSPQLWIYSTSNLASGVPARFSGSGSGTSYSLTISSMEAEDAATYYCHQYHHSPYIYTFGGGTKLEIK	1.01
KB001 mouse Fab FASEBA VH G55N (Fab, V domains shown) VH: EVQLKQSGPGLVAPSQSLSITCTVSGFSLSIYSVHWVRQPPGKGLEWLGMIWGGNSSDYNSALKSRLSISKDNSKSQVFLKMNSLQTDDTAMYYCARNGNFYAMDYWGQGTSVTVSS VL: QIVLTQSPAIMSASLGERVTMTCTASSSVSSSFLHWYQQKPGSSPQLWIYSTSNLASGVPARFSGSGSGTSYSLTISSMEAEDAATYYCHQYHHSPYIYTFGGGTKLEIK	0.81
KB001 mouse Fab FASEBA VH Y106R (Fab, V domains shown) VH: EVQLKQSGPGLVAPSQSLSITCTVSGFSLSIYSVHWVRQPPGKGLEWLGMIWGGGSSDYNSALKSRLSISKDNSKSQVFLKMNSLQTDDTAMYYCARNGNFYAMDRWGQGTSVTVSS VL: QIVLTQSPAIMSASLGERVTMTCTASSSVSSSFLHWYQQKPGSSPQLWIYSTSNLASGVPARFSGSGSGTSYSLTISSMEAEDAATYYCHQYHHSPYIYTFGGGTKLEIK	1.03
KB001 mouse Fab FASEBA VH I51Q/M92I (Fab, V domains shown) VH: EVQLKQSGPGLVAPSQSLSITCTVSGFSLSIYSVHWVRQPPGKGLEWLGMQWGGGSSDYNSALKSRLSISKDNSKSQVFLKMNSLQTDDTAIYYCARNGNFYAMDYWGQGTSVTVSS VL: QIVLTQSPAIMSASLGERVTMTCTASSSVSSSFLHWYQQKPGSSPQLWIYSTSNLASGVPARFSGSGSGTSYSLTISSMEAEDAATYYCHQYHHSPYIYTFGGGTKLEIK	0.817
